The reported measurements were obtained from patent US20230365582A1.

biological target: hEP4 (Homo sapiens, UniProt P35408); construct: expressed in transfected cells; host or cells: HEK293; assay: hEP4 cAMP assay; assay type: cell-based; conditions: HEK293 cells overexpressing hEP4; PGE2 agonist 20 nM; graded per Table 21; read-out: IC50 (nM) EP4 cAMP
Sequence (P35408 whole entry): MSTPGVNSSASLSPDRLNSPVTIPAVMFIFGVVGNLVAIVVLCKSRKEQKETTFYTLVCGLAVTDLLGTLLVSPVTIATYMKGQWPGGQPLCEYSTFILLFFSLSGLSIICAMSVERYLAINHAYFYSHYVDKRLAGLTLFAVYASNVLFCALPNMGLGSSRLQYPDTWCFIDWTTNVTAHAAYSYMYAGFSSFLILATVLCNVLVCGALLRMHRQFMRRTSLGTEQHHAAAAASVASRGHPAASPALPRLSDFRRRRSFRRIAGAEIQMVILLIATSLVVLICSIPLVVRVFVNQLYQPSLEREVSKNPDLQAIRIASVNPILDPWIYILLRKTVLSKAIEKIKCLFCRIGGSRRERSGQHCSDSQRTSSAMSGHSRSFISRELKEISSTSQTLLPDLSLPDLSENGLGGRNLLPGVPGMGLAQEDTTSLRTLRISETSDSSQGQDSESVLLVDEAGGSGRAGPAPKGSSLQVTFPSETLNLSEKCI
Please respond with reported IC50 for every item in the list.

Items follow; give IC50 for each.
1. COc1cccc(-c2ccc(Cc3c(C)sc(C)c3C(=O)NC3CC4(C3)CC(C(=O)O)C4)cc2)c1 (stereo not shown) [Example 29]
2. COc1cc(F)cc(-c2ccc(Cc3ccsc3C(=O)NC3CC4(C3)CC(C(=O)O)C4)cc2)c1 (stereo not shown) [Example 19]
3. Cc1sc(C)c(C(=O)NC2CC3(C2)CC(C(=O)O)C3)c1Cc1ccc(-c2cc(F)cc(F)c2)cc1 (stereo not shown) [Example 52]
4. Cc1sc(C)c(C(=O)NC2CC3(C2)CC(C(=O)O)C3)c1Cc1ccc(-c2ccccc2)cc1 (stereo not shown) [Example 1]
5. Cc1sc(C)c(C(=O)NC2CC3(C2)CC(C(=O)O)C3)c1Cc1ccc(-c2cc(F)cc(CO)c2)cc1 (stereo not shown) [Example 60]
6. O=C(NC1CC2(C1)CC(C(=O)O)C2)c1csc2ccn(Cc3ccc(C(F)(F)F)cc3)c12 (stereo not shown) [Example 90]

1: < 500 nM; 2: < 500 nM; 3: < 500 nM; 4: < 500 nM; 5: < 500 nM; 6: 500 to 5000 nM

For each entry beneath this line, provide reported IC50.
1. COc1cc(-c2ccc(Cc3c(C)sc(C)c3C(=O)NC3CC4(C3)CC(C(=O)O)C4)cc2)ccn1 (stereo not shown) [Example 50]
2. Cc1sc(C)c(C(=O)NC2CC3(C2)CC(C(=O)O)C3)c1CCc1ccc(-c2ccccc2)cc1 (stereo not shown) [Example 6]

["< 500 nM", "> 10000 nM"]

Need IC50 for each of these compounds.
1. O=C(NC1CC2(C1)CC(C(=O)O)C2)c1csc(-c2ccccc2)c1Cc1ccc(-c2ccccc2)cc1 (stereo not shown) [Example 21]
2. Cc1sc(C)c(C(=O)NC2CC3(C2)CC(C(=O)O)C3)c1Cc1ccc(-c2ccc(S(C)(=O)=O)cc2)cc1 (stereo not shown) [Example 35]
3. Cc1sc(C)c(C(=O)NC2CC3(C2)CC(C(=O)O)C3)c1Cc1ccc(-c2cccc(C#N)c2)cc1 (stereo not shown) [Example 30]
4. O=C(NC1CC2(C1)CC(C(=O)O)C2)c1c(Cl)sc(Cl)c1Cc1ccc(-c2ccccc2)cc1 (stereo not shown) [Example 17]

1. > 10000 nM
2. 5000 to 10000 nM
3. < 500 nM
4. < 500 nM

---

biological target: hEP2 (Homo sapiens, UniProt P43116); construct: expressed in transfected cells; host or cells: HEK293; experiment: hEP2 cAMP assay; format: cell-based; conditions: HEK293 cells overexpressing hEP2; PGE2 agonist 400 pM; graded per Table 21; read-out: IC50 (nM) EP2 cAMP
Sequence (P43116 whole entry): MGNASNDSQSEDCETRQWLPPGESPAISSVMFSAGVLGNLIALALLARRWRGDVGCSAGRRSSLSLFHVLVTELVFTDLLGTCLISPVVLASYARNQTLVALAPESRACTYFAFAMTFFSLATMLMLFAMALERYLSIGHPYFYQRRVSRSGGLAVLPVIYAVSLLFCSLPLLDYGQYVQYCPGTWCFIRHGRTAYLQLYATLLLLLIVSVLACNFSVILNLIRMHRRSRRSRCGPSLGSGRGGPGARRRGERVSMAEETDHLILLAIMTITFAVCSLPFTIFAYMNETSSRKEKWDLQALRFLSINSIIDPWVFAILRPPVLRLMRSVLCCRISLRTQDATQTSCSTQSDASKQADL
REPORTED METRIC: IC50

Below are worked cases with known answers.
# MOLECULE, TEST SYSTEM, IC50
measured = [
    ("Cc1sc(C)c(C(=O)NC2CC3(C2)CC(C(=O)O)C3)c1Cc1ccc(-c2ccoc2)cc1 (stereo not drawn)", "hEP2 (Homo sapiens, UniProt P43116)", "500 to 5000 nM"),
    ("Cc1sc(C)c(C(=O)NC2CC3(C2)CC(C(=O)O)C3)c1Cc1ccc(Cl)cc1 (stereo not drawn)", "hEP2 (Homo sapiens, UniProt P43116)", "> 10000 nM"),
    ("COc1cc(CN)cc(-c2ccc(Cc3c(C)sc(C)c3C(=O)NC3CC4(C3)CC(C(=O)O)C4)cc2)c1 (stereo not drawn)", "hEP2 (Homo sapiens, UniProt P43116)", "> 10000 nM"),
    ("Cc1sc(C)c(C(=O)NC2CC3(C2)CC(C(=O)O)C3)c1Cc1ccc(-c2ccc(C(=O)OC(C)(C)C)cc2)cc1 (stereo not drawn)", "hEP2 (Homo sapiens, UniProt P43116)", "5000 to 10000 nM"),
    ("COc1cccc(-c2ccc(Cn3ccc4scc(C(=O)NC5CC6(C5)CC(C(=O)O)C6)c43)cc2)n1 (stereo not drawn)", "hEP2 (Homo sapiens, UniProt P43116)", "500 to 5000 nM"),
    ("Cc1cnn(-c2ccc(Cn3ccc4scc(C(=O)NC5CC6(C5)CC(C(=O)O)C6)c43)cc2)c1 (stereo not drawn)", "hEP2 (Homo sapiens, UniProt P43116)", "> 10000 nM"),
]

Give me IC50 for each of these molecules, listed below.
1. COC(c1ccc(-c2ccccc2)cc1)c1c(C)sc(C)c1C(=O)NC1CC2(C1)CC(C(=O)O)C2 (stereo not drawn)
2. Cc1sc(C)c(C(=O)NC2CC3(C2)CC(C(=O)O)C3)c1Oc1ccc(-c2ccccc2)cc1 (stereo not drawn)
3. Cc1sc(C)c(C(=O)NC2CC3(C2)CC(C(=O)O)C3)c1Cc1ccc(-c2ccc(F)c(C(=O)O)c2)cc1 (stereo not drawn)
4. COc1cncc(-c2ccc(Cn3ccc4scc(C(=O)NC5CC6(C5)CC(C(=O)O)C6)c43)cc2)c1 (stereo not drawn)
5. Cc1sc(C)c(C(=O)NC2CC3(C2)CC(C(=O)O)C3)c1Cc1ccc(-c2cccc(C#N)c2)cc1 (stereo not drawn)

1. > 10000 nM
2. > 10000 nM
3. > 10000 nM
4. 500 to 5000 nM
5. > 10000 nM

Batch request: IC50 for each of the following molecules.
1. O=C(N[C@H]1CC2(C1)C[C@H](C(=O)O)C2)c1csc2ccn(Cc3ccc(-c4ccccc4)cc3)c12 (single isomer, unassigned) [Example 79a]
2. O=C(NC1CC2(C1)CC(C(=O)O)C2)c1csc2ccn(Cc3ccc(C(F)(F)F)cc3)c12 (stereo not drawn)
3. Cc1sc2ccn(CC#Cc3ccccc3)c2c1C(=O)NC1CC2(C1)CC(C(=O)O)C2 (stereo not drawn)
4. COc1cc(C(N)=O)cc(-c2ccc(Cc3c(C)sc(C)c3C(=O)NC3CC4(C3)CC(C(=O)O)C4)cc2)c1 (stereo not drawn)

["500 to 5000 nM", "500 to 5000 nM", "> 10000 nM", "500 to 5000 nM"]

---

biological target: hEP2 (Homo sapiens, UniProt P43116); construct: expressed in transfected cells; host or cells: HEK293; assay: hEP2 cAMP assay; type: cell-based; settings: HEK293 cells overexpressing hEP2; PGE2 agonist 400 pM; graded per Table 21; read-out: IC50 (nM) EP2 cAMP
REPORTED METRIC: IC50

# MOLECULE, RESULT
measured = [
    ("Cc1sc(C)c(C(=O)NC2CC3(C2)CC(C(=O)O)C3)c1Cc1ccc(C2CCNCC2)cc1 (centres unmarked)", "> 10000 nM"),
    ("COc1cccc(-c2ccc(Cn3ccc4scc(C(=O)NC5CC6(C5)CC(C(=O)O)C6)c43)cc2)c1 (centres unmarked)", "< 500 nM"),
    ("COc1cc(F)cc(-c2ccc(Cc3ccsc3C(=O)NC3CC4(C3)CC(C(=O)O)C4)cc2)c1 (centres unmarked)", "500 to 5000 nM"),
    ("O=C(NC1CC2(C1)CC(C(=O)O)C2)c1csc2ccn(Cc3ccc(-c4ccccn4)cc3)c12 (centres unmarked)", "5000 to 10000 nM"),
    ("Cc1sc(C)c(C(=O)NC2CC3(C2)CC(C(=O)O)C3)c1Cc1ccc(-c2ccccc2O)cc1 (centres unmarked)", "> 10000 nM"),
    ("Cc1cn(Cc2ccc(-c3ccccc3)cc2)c2c(C(=O)NC3CC4(C3)CC(C(=O)O)C4)csc12 (centres unmarked)", "500 to 5000 nM"),
    ("O=C(NC1CC2(C1)CC(C(=O)O)C2)c1c(Cl)sc2ccn(Cc3ccc(-c4ccccc4)cc3)c12 (centres unmarked)", "500 to 5000 nM"),
]

# context switch: different molecule, same IC50
Look up IC50 for this molecule: O=C(NC1CC2(C1)CC(C(=O)O)C2)c1csc(Br)c1Cc1ccc(-c2ccccc2)cc1 (centres unmarked)
< 500 nM

---

target: hEP2 (Homo sapiens); construct: expressed in transfected cells; host or cells: HEK293; assay: hEP2 cAMP assay; format: cell-based; conditions: HEK293 cells overexpressing hEP2; PGE2 agonist 400 pM; graded per Table 21; read-out: IC50 (nM) EP2 cAMP
Assignment: determine reported IC50 for the given molecules.

# count of solved cases: 3
# MOLECULE, TEST SYSTEM, RESULT
rows = [
    ("Cc1sc2ccn(Cc3ccc(-c4ccccc4)cc3)c2c1C(=O)NC1CC2(C1)CC(C(=O)O)C2 (stereo not shown)", "hEP2 (Homo sapiens)", "500 to 5000 nM"),
    ("Cc1sc(C)c(C(=O)NC2CC3(C2)CC(C(=O)O)C3)c1Cc1ccc(-c2cc(F)cc(S(C)(=O)=O)c2)cc1 (stereo not shown)", "hEP2 (Homo sapiens)", "> 10000 nM"),
    ("COc1cc(-c2ccc(Cc3c(C)sc(C)c3C(=O)NC3CC4(C3)CC(C(=O)O)C4)cc2)cc(C(F)(F)F)c1 (stereo not shown)", "hEP2 (Homo sapiens)", "500 to 5000 nM"),
]

Batch request: IC50 for each of the following molecules.
1. Cc1sc(C)c(C(=O)N[C@H]2CC3(C2)C[C@H](C(=O)O)C3)c1Cc1ccc(-c2ccccc2)cc1 (single isomer, unassigned) [Example 1b]
2. Cc1sc(C)c(C(=O)NC2CC3(C2)CC(C(=O)O)C3)c1CN1CCN(c2ccccc2)CC1 (stereo not shown)
3. Cc1sc(C)c(C(=O)NC2CC3(C2)CC(C(=O)O)C3)c1Cc1ccc(-c2cnn(C)c2)cc1 (stereo not shown)
4. O=C(NC1CC2(C1)CC(C(=O)O)C2)c1csc(C2CC2)c1Cc1ccc(-c2ccccc2)cc1 (stereo not shown)

1. 500 to 5000 nM
2. > 10000 nM
3. > 10000 nM
4. 500 to 5000 nM
